experimental details: RP, Agilent ZORBAX Eclipse Plus C18, 50 × 4.6 mm, 1.8 µm, 0.5 mL/min, estimated dead time 1.1 min; A: water + 0.1% formic acid; B: acetonitrile + 0.1% formic acid; gradient (min/%B) 0/10 3/10 25/100 28/100
condition info: stereoisomer not certain
measure name: LC retention time
State the value with its unit after it.

### Prompt Which measured LC retention time value corresponds to `COc1nn(CSP(=S)(OC)OC)c(=O)s1` ?
### Response 15.3 min

### Prompt Cool, now CCOc1ccc2c3c1OC1C(O)C=CC4C(C2)N(C)CCC341 (stereo unspecified)
### Response 5.83 min

### Prompt Cool, now CC1(C)SC2C(NC(=O)C(N)c3ccccc3)C(=O)N2C1C(=O)O (stereo unspecified)
### Response 7.93 min

### Prompt Cool, now `COC(=O)c1ccccc1CS(=O)(=O)NC(=O)Nc1nc(OC)cc(OC)n1`
### Response 14.2 min

### Prompt Cool, now `CNC(=O)Oc1cc(C)c(SC)c(C)c1`
### Response 15 min

### Prompt Cool, now COC(=O)Nc1nc2ccc(S(=O)c3ccccc3)cc2[nH]1 (stereo unspecified)
### Response 8.64 min

### Prompt Cool, now `COP(=S)(OC)Oc1ccc(SC)c(C)c1`
### Response 18.5 min

### Prompt Cool, now `CCn1cc(C(=O)O)c(=O)c2cnc(N3CCNCC3)nc21`
### Response 4.78 min

### Prompt Cool, now `Cc1nc(N(C)C)nc(OC(=O)N(C)C)c1C`
### Response 6.86 min

### Prompt Cool, now CN1C2CCC1C(C(=O)O)C(OC(=O)c1ccccc1)C2 (stereo unspecified)
### Response 6.61 min

### Prompt Cool, now CCOP(=S)(Oc1ccc([N+](=O)[O-])cc1)c1ccccc1 (stereo unspecified)
### Response 20 min

###

experimental details: RP, Agilent ZORBAX Eclipse Plus C18, 50 × 4.6 mm, 1.8 µm, 0.5 mL/min, estimated dead time 1.1 min; A: water + 0.1% formic acid; B: acetonitrile + 0.1% formic acid; gradient (min/%B) 0/10 3/10 25/100 28/100
condition info: stereoisomer not certain
# label = criterion met if LC retention time < 10 min else criterion not met

### Prompt In the record for `Cc1cc(C)nc(Nc2ccccc2)n1` , is LC retention time less than 10 min?
### Response criterion not met

### Prompt Cool, now `CCOP(=S)(OCC)Oc1ccc(=O)n(-c2ccccc2)n1`
### Response criterion not met

### Prompt Cool, now `CSc1nc(NC2CC2)nc(NC(C)(C)C)n1`
### Response criterion not met

### Prompt Cool, now CCOC(=O)C1CC(=O)C(=C(O)C2CC2)C(=O)C1 (stereo not drawn)
### Response criterion not met

### Prompt Cool, now `NC(=O)N1c2ccccc2C=Cc2ccccc21`
### Response criterion not met

### Prompt Cool, now `COC(=O)Nc1nc2ccc(C(=O)c3ccccc3)cc2[nH]1`
### Response criterion not met

### Prompt Cool, now `COC(=O)C=C(C)OP(=O)(OC)OC`
### Response criterion met

### Prompt Cool, now `COC(=O)Nc1nc2ccc(Sc3ccccc3)cc2[nH]1`
### Response criterion not met

### Prompt Cool, now `CNC(=O)ON=CC(C)(C)S(C)(=O)=O`
### Response criterion met

### Prompt Cool, now `CCOP(=O)(Sc1ccccc1)Sc1ccccc1`
### Response criterion not met

### Prompt Cool, now CC(C)NCC(O)COc1cccc2ccccc12 (stereo not drawn)
### Response criterion met

### Prompt Cool, now `Nc1nc(N)nc(NC2CC2)n1`
### Response criterion met

### Prompt Cool, now `COC(=O)NS(=O)(=O)c1ccc(N)cc1`
### Response criterion met

Source of measurements: the RepoRT retention time repository (doi:10.1016/j.chroma.2014.05.003)
